Subject Of Test: PD-L1 (Homo sapiens)
Construct: determine if they can specifically dimerize the extracellular domains of PD-L1
Sequence (Q9NZQ7 19-238 limits assumed): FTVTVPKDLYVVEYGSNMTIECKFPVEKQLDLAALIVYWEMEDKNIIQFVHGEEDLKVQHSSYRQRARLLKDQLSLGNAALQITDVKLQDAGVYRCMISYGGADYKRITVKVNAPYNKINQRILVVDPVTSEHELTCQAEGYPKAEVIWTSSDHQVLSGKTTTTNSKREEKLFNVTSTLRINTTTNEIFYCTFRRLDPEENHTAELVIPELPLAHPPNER
Sequence (Q9NZQ7 19-238 limits assumed): as above
Method Notes: PD-L1/PD-L1 dimerization biochemical protein-protein interaction assay (ALPHA)
Type: binding
Condition Info: compound-induced PD-L1 dimerization, head prints '1 nM' (0.5 nM His-tagged PD-L1 and 0.5 nM FLAG-tagged PD-L1), read-out: AC50 PDL1 Dimer Alpha 1 nM
Metric Name: AC50 (nM)

CNC(=O)COc1cc(-c2cccc(-c3cccc(COc4cc(OCc5cncc(C#N)c5)c(CNC[C@@H](O)CC(=O)O)cc4Cl)c3C)c2C)ccc1C1=NCCN1 : 77.8

I: C[C@@](CO)(NCc1cc(Cl)c(O[C@H]2CCc3c(-c4cccc(-c5ccc(OCCNCCO)cc5)c4Cl)cccc32)nc1OCc1cncc(C#N)c1)C(=O)O
II: Cc1c(COc2cc(OCc3cncc(C#N)c3)c(CN[C@@](C)(CO)C(=O)O)cc2Cl)cccc1-c1cccc(-c2ccc(CNCCCS(N)(=O)=O)cc2)c1C
III: COc1nc(-c2cccc(-c3cccc4c3CC[C@@H]4Oc3nc(OC)c(CN4CC[C@@H](C(=O)O)C4)cc3Cl)c2Cl)ccc1CNC[C@@H]1CCC(=O)N1
IV: Cc1c(COc2cc(OCc3cncc(C#N)c3)c(CN[C@@](C)(CO)C(=O)O)cc2Cl)cccc1-c1cccc(-c2ccc3c(c2)CC(N)C3)c1C (some centres unmarked)
V: COc1nc(-c2cccc(-c3cccc4c3CC[C@@H]4Oc3nc(OC)c(CN4CC(C(=O)O)C4)cc3Cl)c2Cl)ccc1CNC[C@@H]1CCC(=O)N1
Prompt: Hello, I need these entries ordered by AC50, highest reading first. Thanks! I'd appreciate it if you listed the labels in the requested order.
Completion: IV, II, III, V, I

a: COc1nc(-c2cccc(-c3cccc4c3CC[C@@H]4Oc3nc(OC)c(CN[C@@](C)(CO)C(=O)O)cc3Cl)c2Cl)ccc1CNC[C@@H]1CCC(=O)N1
b: COc1nc(O[C@H]2CCc3c(-c4cccc(-c5cc(C)c(CNC[C@@H]6CCC(=O)N6)c(OC)n5)c4Cl)cccc32)c(Cl)cc1CN1CC(C(=O)O)C1
Prompt: Higher AC50: a or b ? Mark your selection by writing its label.
Completion: b

P: CC(C)(NCc1cc(Cl)c(OCc2cccc(-c3cccc(-c4ccc(OCCNCCO)cc4)c3Cl)c2Cl)nc1OCc1cncc(S(C)(=O)=O)c1)C(=O)O
Q: COc1nc(Oc2cccc(-c3cccc(-c4ccc(CNC[C@@H]5CCC(=O)N5)c(OC)n4)c3Cl)c2Cl)ccc1CNC[C@@H]1CCC(=O)N1
Prompt: Higher AC50: P or Q ? Mark your selection by writing its label.
Completion: Q
